assayed_target: T1, wild-type DegS (residues 27-355, without the membrane anchor) (E. coli, UniProt P0AEE3 27-355)
T1 sequence (looked up): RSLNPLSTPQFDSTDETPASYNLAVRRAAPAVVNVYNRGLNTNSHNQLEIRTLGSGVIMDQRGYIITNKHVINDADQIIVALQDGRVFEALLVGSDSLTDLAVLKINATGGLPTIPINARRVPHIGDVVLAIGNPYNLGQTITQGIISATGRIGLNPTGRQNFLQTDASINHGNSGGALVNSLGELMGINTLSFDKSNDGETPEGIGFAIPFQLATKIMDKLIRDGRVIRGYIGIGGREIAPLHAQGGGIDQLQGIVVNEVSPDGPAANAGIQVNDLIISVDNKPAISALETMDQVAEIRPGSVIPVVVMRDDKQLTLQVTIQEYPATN
protocol_summary: fluorescence polarisation
Where no end group is shown, it is not given here. fluorescein = fluorescein, a fluorescent label on the peptide N-terminus
metric_name: Kd (µM)

binder="fluorescein-DNRDGNVYYF [fluorescent OMP peptide fluorescein-DNRDGNVYYF]" metric_name=Kd observed_measurement=4
